Data provenance is ChEMBL document CHEMBL3885861.

Kindly state RBC for each of the entries shown.
- Species on record: Rattus norvegicus
- EXPERIMENTAL PROTOCOL: Open TG-GATES - Regimen: Daily Repeat
- Assay type: toxicity, organism-based, Sprague-Dawley
- Design: regimen Daily Repeat, gender Male, age 6 weeks
- CONDITION: in vivo, po, 300 mg/kg, 72 h, tissue Blood, route gavage, dose level Middle, time 3 day
Expressed in x10_4/ul, but write only the number.

Item under review: COc1ccc2[nH]c([S+]([O-])Cc3ncc(C)c(OC)c3C)nc2c1 (stereo not given) [OMEPRAZOLE] . Reported RBC?
623

Item under review: NC(N)=Nc1nc(CSCCC(N)=NS(N)(=O)=O)cs1 [FAMOTIDINE] . Reported RBC?
589.8

Item under review: CCOc1ccc(NC(=O)CC(C)O)cc1 (stereo not given) [BUCETIN] . Reported RBC?
638.8

Item under review: CCOC(=O)CCC(=O)O[C@H]1[C@H](O[C@@H]2[C@@H](C)[C@H](O[C@H]3C[C@@](C)(OC)[C@@H](O)[C@H](C)O3)[C@@H](C)C(=O)O[C@H](CC)[C@@](C)(O)[C@H](O)[C@@H](C)C(=O)[C@H](C)C[C@@]2(C)O)O[C@H](C)C[C@@H]1N(C)C [ERYTHROMYCIN ETHYLSUCCINATE] . Reported RBC?
627.6

Item under review: COC1=CC(=O)C[C@@H](C)[C@]12Oc1c(Cl)c(OC)cc(OC)c1C2=O [GRISEOFULVIN] . Reported RBC?
651.8

----------
- Species on record: Rattus norvegicus
- EXPERIMENTAL PROTOCOL: Open TG-GATES - Regimen: Single
- Assay type: toxicity, organism-based, Sprague-Dawley
- Parameters: regimen Single, gender Male, age 6 weeks
- CONDITION: in vivo, po, 30 mg/kg, 9 h, tissue Blood, route gavage, dose level Middle
PROPERTY: APTT (s)
Expressed in s, but write only the number.

Item under review: CN(C)CCN(Cc1cccs1)c1ccccn1 . Reported APTT?
20.6

Item under review: CN(C)CCCN1c2ccccc2CCc2ccc(Cl)cc21 . Reported APTT?
17.1

Item under review: CC1=C(/C=C/C(C)=C/C=C/C(C)=C/CO)C(C)(C)CCC1 . Reported APTT?
21.7

Item under review: CN(C)CCCN1c2ccccc2CCc2ccccc21 . Reported APTT?
15.4

----------
- Species: Rattus norvegicus
- EXPERIMENTAL PROTOCOL: Open TG-GATES - Regimen: Daily Repeat
- Assay type: toxicity, organism-based, Sprague-Dawley
- Parameters: regimen Daily Repeat, gender Male, age 6 weeks
- CONDITION: in vivo, po, 100 mg/kg, […], tissue Blood, route gavage, dose level Low, time 14 day
PROPERTY: Fbg (mg/dL)
Expressed in mg/dL, but write only the number.

Item under review: COC1=CC(=O)C[C@@H](C)[C@]12Oc1c(Cl)c(OC)cc(OC)c1C2=O . Reported Fbg?
225.6

Item under review: COc1ccc2[nH]c([S+]([O-])Cc3ncc(C)c(OC)c3C)nc2c1 (stereo not given) . Reported Fbg?
208.4

Item under review: NC(N)=Nc1nc(CSCCC(N)=NS(N)(=O)=O)cs1 . Reported Fbg?
217.4

Item under review: CCOc1ccc(NC(=O)CC(C)O)cc1 (stereo not given) . Reported Fbg?
287.8

Item under review: CCOC(=O)CCC(=O)O[C@H]1[C@H](O[C@@H]2[C@@H](C)[C@H](O[C@H]3C[C@@](C)(OC)[C@@H](O)[C@H](C)O3)[C@@H](C)C(=O)O[C@H](CC)[C@@](C)(O)[C@H](O)[C@@H](C)C(=O)[C@H](C)C[C@@]2(C)O)O[C@H](C)C[C@@H]1N(C)C [ERYTHROMYCIN ETHYLSUCCINATE] . Reported Fbg?
338

----------
- Species on record: Rattus norvegicus
- EXPERIMENTAL PROTOCOL: Open TG-GATES - Regimen: Single
- Type: toxicity, organism-based, Sprague-Dawley
- Parameters: regimen Single, gender Male, age 6 weeks
- CONDITION: in vivo, po, 10 mg/kg, 3 h, tissue Blood, route gavage, dose level Low
Kindly state Fbg for each of the entries shown.
Answer format: number, then unit.

Item under review: CC1=C(/C=C/C(C)=C/C=C/C(C)=C/CO)C(C)(C)CCC1 . Reported Fbg?
307.4 mg/dL

Item under review: CN(C)CCN(Cc1cccs1)c1ccccn1 . Reported Fbg?
285 mg/dL

Item under review: CC(C)OC(=O)C(C)(C)Oc1ccc(C(=O)c2ccc(Cl)cc2)cc1 [FENOFIBRATE] . Reported Fbg?
280.8 mg/dL

Item under review: CN(C)CCCN1c2ccccc2CCc2ccc(Cl)cc21 . Reported Fbg?
240 mg/dL

Item under review: CN(C)CCCN1c2ccccc2CCc2ccccc21 . Reported Fbg?
264.4 mg/dL

----------
- Species: Rattus norvegicus
- EXPERIMENTAL PROTOCOL: Open TG-GATES - Regimen: Single
- Assay type: toxicity, organism-based, Sprague-Dawley
- Set-up: regimen Single, gender Male, age 6 weeks
- CONDITION: in vivo, po, 1000 mg/kg, 24 h, tissue Plasma, route gavage, dose level High
Kindly state AST for each of the entries shown.
Expressed in IU/L, but write only the number.

Item under review: CC(C)OC(=O)C(C)(C)Oc1ccc(C(=O)c2ccc(Cl)cc2)cc1 [FENOFIBRATE] . Reported AST?
84.4

Item under review: NC(N)=Nc1nc(CSCCC(N)=NS(N)(=O)=O)cs1 . Reported AST?
65.4

Item under review: COc1ccc2[nH]c([S+]([O-])Cc3ncc(C)c(OC)c3C)nc2c1 (stereo not given) . Reported AST?
64.8

Item under review: CCOC(=O)CCC(=O)O[C@H]1[C@H](O[C@@H]2[C@@H](C)[C@H](O[C@H]3C[C@@](C)(OC)[C@@H](O)[C@H](C)O3)[C@@H](C)C(=O)O[C@H](CC)[C@@](C)(O)[C@H](O)[C@@H](C)C(=O)[C@H](C)C[C@@]2(C)O)O[C@H](C)C[C@@H]1N(C)C [ERYTHROMYCIN ETHYLSUCCINATE] . Reported AST?
66.4

Item under review: COC1=CC(=O)C[C@@H](C)[C@]12Oc1c(Cl)c(OC)cc(OC)c1C2=O . Reported AST?
69.8

----------
- Organism: Rattus norvegicus
- EXPERIMENTAL PROTOCOL: Open TG-GATES - Regimen: Single
- Assay type: toxicity, organism-based, Sprague-Dawley
- Set-up: regimen Single, gender Male, age 6 weeks
- CONDITION: in vivo, po, 300 mg/kg, 3 h, tissue Plasma, route gavage, dose level Middle
PROPERTY: GLC (mg/dL)
Expressed in mg/dL, but write only the number.

Item under review: CCOC(=O)CCC(=O)O[C@H]1[C@H](O[C@@H]2[C@@H](C)[C@H](O[C@H]3C[C@@](C)(OC)[C@@H](O)[C@H](C)O3)[C@@H](C)C(=O)O[C@H](CC)[C@@](C)(O)[C@H](O)[C@@H](C)C(=O)[C@H](C)C[C@@]2(C)O)O[C@H](C)C[C@@H]1N(C)C [ERYTHROMYCIN ETHYLSUCCINATE] . Reported GLC?
179

Item under review: COc1ccc2[nH]c([S+]([O-])Cc3ncc(C)c(OC)c3C)nc2c1 (centres undefined) . Reported GLC?
194.8

Item under review: NC(N)=Nc1nc(CSCCC(N)=NS(N)(=O)=O)cs1 . Reported GLC?
197.8

Item under review: COC1=CC(=O)C[C@@H](C)[C@]12Oc1c(Cl)c(OC)cc(OC)c1C2=O . Reported GLC?
190.4

----------
- Species on record: Rattus norvegicus
- EXPERIMENTAL PROTOCOL: Open TG-GATES - Regimen: Single
- Format: toxicity, organism-based, Sprague-Dawley
- Design: regimen Single, gender Male, age 6 weeks
- CONDITION: in vivo, po, 100 mg/kg, 6 h, tissue Plasma, route gavage, dose level High
PROPERTY: ALP (IU/L)
Expressed in IU/L, but write only the number.

Item under review: CN(C)CCN(Cc1cccs1)c1ccccn1 . Reported ALP?
1538

Item under review: CN(C)CCCN1c2ccccc2CCc2ccccc21 . Reported ALP?
1251.8

Item under review: CC1=C(/C=C/C(C)=C/C=C/C(C)=C/CO)C(C)(C)CCC1 . Reported ALP?
1660.6

Item under review: CN(C)CCCN1c2ccccc2CCc2ccc(Cl)cc21 . Reported ALP?
1949.8

----------
Kindly state Ht for each of the entries shown.
- Species on record: Rattus norvegicus
- EXPERIMENTAL PROTOCOL: Open TG-GATES - Regimen: Daily Repeat
- Assay type: toxicity, organism-based, Sprague-Dawley
- Set-up: regimen Daily Repeat, gender Male, age 6 weeks
- CONDITION: in vivo, po, 10 mg/kg, […], tissue Blood, route gavage, dose level Low, time 7 day
Expressed in %, but write only the number.

Item under review: CN(C)CCN(Cc1cccs1)c1ccccn1 . Reported Ht?
40.5

Item under review: CC1=C(/C=C/C(C)=C/C=C/C(C)=C/CO)C(C)(C)CCC1 . Reported Ht?
39.2

Item under review: CN(C)CCCN1c2ccccc2CCc2ccccc21 . Reported Ht?
40.2

Item under review: CC(C)OC(=O)C(C)(C)Oc1ccc(C(=O)c2ccc(Cl)cc2)cc1 [FENOFIBRATE] . Reported Ht?
41
